target: S1P1 (Homo sapiens); test: Tango β-arrestin Recruitment Assay in HEK293 cells (Assay 2a); assay type: cell-based; design: linker with TEV protease (N1a) cleavage site (C); host or cells: HEK293, transiently transfected; conditions: Tango β-arrestin Recruitment Assay, read-out: Assay 2a EC50
Sequence (P21453 whole entry): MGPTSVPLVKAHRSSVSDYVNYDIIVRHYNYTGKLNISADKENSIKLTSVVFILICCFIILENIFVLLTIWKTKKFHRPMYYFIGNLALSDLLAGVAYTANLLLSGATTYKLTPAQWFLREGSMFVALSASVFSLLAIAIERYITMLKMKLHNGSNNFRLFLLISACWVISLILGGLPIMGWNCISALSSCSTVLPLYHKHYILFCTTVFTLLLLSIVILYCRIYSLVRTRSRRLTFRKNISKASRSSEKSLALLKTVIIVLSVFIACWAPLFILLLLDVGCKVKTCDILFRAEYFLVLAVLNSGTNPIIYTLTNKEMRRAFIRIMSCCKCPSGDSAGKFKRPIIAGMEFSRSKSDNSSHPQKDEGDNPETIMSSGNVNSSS
Sequence (P32121 whole entry partner): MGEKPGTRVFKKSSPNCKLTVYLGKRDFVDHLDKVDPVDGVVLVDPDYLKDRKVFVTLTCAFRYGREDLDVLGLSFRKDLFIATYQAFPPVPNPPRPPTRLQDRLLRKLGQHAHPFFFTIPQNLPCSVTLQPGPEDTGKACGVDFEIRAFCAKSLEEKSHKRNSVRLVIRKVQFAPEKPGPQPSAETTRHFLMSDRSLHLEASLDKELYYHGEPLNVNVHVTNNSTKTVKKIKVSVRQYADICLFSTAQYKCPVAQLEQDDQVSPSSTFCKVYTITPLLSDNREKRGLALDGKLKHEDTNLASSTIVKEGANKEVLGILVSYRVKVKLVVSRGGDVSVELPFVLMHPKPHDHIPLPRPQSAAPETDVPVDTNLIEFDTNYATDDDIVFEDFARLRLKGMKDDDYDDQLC
quantity_measured: EC50

Completed entries (count: 6):
Fc1cccc(F)c1-c1noc(-c2cn3cc(C(F)(F)F)cc(Cl)c3n2)n1 [Example 141]    100 to 500 nM
O=C(O)CC(O)c1ccc(-c2noc(-c3cn4cc(C(F)(F)F)cc(Cl)c4n3)n2)c(Cl)c1 (stereo not shown) [Example 139]    ≤ 100 nM
CS(=O)(=O)NCc1ccc(-c2noc(-c3cn4cc(C(F)(F)F)cc(Cl)c4n3)n2)c(Cl)c1 [Example 136]    ≤ 100 nM
O=C(O)CCc1cc(Cl)c(-c2nc(-c3cn4cc(C(F)(F)F)cc(Br)c4n3)no2)cc1F [Example 238]    ≤ 100 nM
O=C(O)C1CC1c1ccc(-c2noc(-c3cn4cc(C(F)(F)F)cc(Cl)c4n3)n2)c(Cl)c1 (stereo not shown) [Example 42]    100 to 500 nM
OCCOc1cc(Cl)c(-c2noc(-c3cn4cc(C(F)(F)F)cc(Cl)c4n3)n2)cc1Cl [Example 288]    ≤ 100 nM

Then there is this molecule:
Entry NC(CO)COc1cc(Cl)c(-c2noc(-c3cn4cc(C(F)(F)F)cc(Cl)c4n3)n2)cc1Cl (stereo not shown) [Example 303] needs its EC50 filled in; supply it.
≤ 100 nM

* * *

A collection of molecules and their measured EC50
molecular target: S1P1 (Homo sapiens); test: CNG cAMP Assay (Assay 1); assay type: cell-based; parameters: host or cells: HEK293 cells expressing the CNG channel; conditions: read-out: Assay 1 EC50
Sequence (P21453 whole entry): as the sequence (P21453 whole entry) above

Completed entries (count: 5):
NCC(O)COc1cc(Cl)c(-c2nnc(-c3cn4cc(C(F)(F)F)cc(Cl)c4n3)s2)cc1F (stereo not drawn) [Example 249]    ≤ 0.1 µM
Cc1c(Cl)cn2cc(-c3nc(-c4cc(F)c(CCC(=O)O)cc4Cl)no3)nc2c1Cl [Entry 35]    0.5 to 1 µM
CC(CC(=O)O)c1ccc(-c2noc(-c3cn4cc(C(F)(F)F)cc(Br)c4n3)n2)c(Cl)c1 (stereo not drawn) [Example 266]    ≤ 0.1 µM
Cc1cc(NS(C)(=O)=O)c(F)cc1-c1noc(-c2cn3cc(C(F)(F)F)cc(Cl)c3n2)n1 [Example 106]    ≤ 0.1 µM
Cc1cc(-c2nnc(-c3cn4cc(C(F)(F)F)cc(Cl)c4n3)s2)cc(C)c1OCC(O)CO (stereo not drawn) [Example 246]    ≤ 0.1 µM

Then there is this molecule:
Entry Fc1cccc(F)c1-c1nc(-c2cn3cc(C(F)(F)F)cc(Cl)c3n2)no1 [Example 228] needs its EC50 filled in; supply it.
0.1 to 0.5 µM

* * *

A collection of compounds and their measured EC50
biological target: S1P1 (Homo sapiens, UniProt P21453); test: CNG cAMP Assay (Assay 1); type: cell-based; set-up: host or cells: HEK293 cells expressing the CNG channel; conditions: read-out: Assay 1 EC50

O=C(O)CCc1c(Cl)cc(-c2noc(-c3cn4cc(C(F)(F)F)cc(Cl)c4n3)n2)cc1Cl [Entry 21]    ≤ 100 nM
Cc1cc(CC(C)C(=O)O)ccc1-c1noc(-c2cn3cc(C(F)(F)F)cc(Br)c3n2)n1 (centres unmarked) [Example 173]    ≤ 100 nM
NC(CC(=O)O)c1ccc(-c2noc(-c3cn4cc(C(F)(F)F)cc(Cl)c4n3)n2)c(Cl)c1 (centres unmarked) [Example 193]    100 to 500 nM

Entry Cc1cc(C2CC2C(=O)O)ccc1-c1noc(-c2cn3cc(C(F)(F)F)cc(Cl)c3n2)n1 (centres unmarked) [Entry 69] needs its EC50 filled in; supply it.
≤ 100 nM

Entry O=C(O)C(O)COc1ccc(-c2noc(-c3cn4cc(C(F)(F)F)cc(Cl)c4n3)n2)c(Cl)c1 (centres unmarked) [Entry 57] needs its EC50 filled in; supply it.
≤ 100 nM

Entry Cc1ccccc1-c1noc(-c2cn3cc(C(F)(F)F)cc(Cl)c3n2)n1 [Example 150] needs its EC50 filled in; supply it.
≤ 100 nM

Entry CC(CO)Oc1cc(Cl)c(-c2nnc(-c3cn4cc(C(F)(F)F)cc(Cl)c4n3)s2)cc1Cl (centres unmarked) [Example 251] needs its EC50 filled in; supply it.
≤ 100 nM

Entry O=C(O)CCc1cc(Cl)c(-c2noc(-c3cn4cccc(Cl)c4n3)n2)cc1F [Entry 32] needs its EC50 filled in; supply it.
100 to 500 nM

Entry O=C(O)CNc1ccc(-c2noc(-c3cn4cc(C(F)(F)F)cc(Cl)c4n3)n2)c(Cl)c1 [Example 103] needs its EC50 filled in; supply it.
100 to 500 nM

Entry CS(=O)(=O)Nc1c(F)cc(-c2noc(-c3cn4cc(C(F)(F)F)cc(Cl)c4n3)n2)cc1Cl [Example 268] needs its EC50 filled in; supply it.
500 to 1000 nM

Entry O=C(O)CCNCc1ccc(-c2noc(-c3cn4cc(C(F)(F)F)cc(Cl)c4n3)n2)cc1 [Example 123] needs its EC50 filled in; supply it.
100 to 500 nM
